pIC50: −log10 of the molar value.
Collected literature values of pIC50 measured for Macrophage colony-stimulating factor 1 receptor (Homo sapiens, UniProt P07333).

Below are worked cases with known answers.
NC(=O)Nc1ccc(F)c(C(=O)c2c[nH]c3ncc(-c4ccccc4)cc23)c1    ≥ 5.00
Fc1cccc(Nc2ncc(Cc3c[nH]c4ncc(Cl)cc34)cn2)c1    > 7.00
O=C(c1c(F)ccc(NS(=O)(=O)c2ccc(C(F)(F)F)cc2)c1F)c1c[nH]c2ncc(Cl)cc12    ≥ 5.00
c1cc(CNc2ncc(Cc3c[nH]c4ncncc34)cn2)cc(OC2CCCC2)n1    ≥ 5.00

Bench note: what pIC50 did COc1ccc(C(=O)c2c[nH]c3ncc(-c4cccc(C(N)=O)c4)cc23)c(F)c1 show? ≥ 5.00

Bench note: what pIC50 did COc1ncccc1CNc1ccc(Cc2c[nH]c3ncnc(OC)c23)c(F)n1 show? ≥ 5.00

Bench note: what pIC50 did O=C(c1c(Cl)ccc(OCC(F)(F)F)c1F)c1c[nH]c2ncc(-c3cccnc3)cc12 show? ≥ 5.00
